Every entry's value here was drawn from the array DNA melting data of Ke et al. (doi:10.1101/2024.01.08.574731).

run_description: folding enthalpy; higher = less favourable; fluorescence melt of hairpins on a sequencing array, two-state fit
experimental_conditions: sodium 0.088 M
Some sequences, each annotated with its measured folding enthalpy.

| seq_string | folding enthalpy |
| --- | --- |
| GGCCTGACGAAAGTCGCC (((..(((....)))))) | -68.3 kJ/mol |
| GTTTGGACGAAAGTCAAC (((..(((....)))))) | -53 kJ/mol |
| GTACAGGGAAACCTGTGC (.(((((....))))).) | -87.5 kJ/mol |
| GCATGGCGAAAGCTATGC ((((.((....)).)))) | -158 kJ/mol |
| GATCGACTTTTCGATC ((((((....)))))) | -147 kJ/mol |
| GGCTCTGGAAACGGAGCC (((((.(....).))))) | -197 kJ/mol |
| GTGTATGAAAATACAC ((((((....)))))) | -151 kJ/mol |
| GCGGAGCGAAAGCCCAGC ((.(.((....)).).)) | -50.7 kJ/mol |
| GCGGAGCGAAAGCTCTGC ((.((((....)))).)) | -150 kJ/mol |
| GGATCAGGAAACTAATCC ((((.((....)).)))) | -54.1 kJ/mol |
| GATCGGTCCACCGATC ((((((....)))))) | -209 kJ/mol |
| GTTAACCGAAAGGTCAAC (((.(((....))).))) | -85.9 kJ/mol |

###

run_description: folding enthalpy; higher = less favourable; fluorescence melt of hairpins on a sequencing array, two-state fit
experimental_conditions: sodium 0.088 M
Use -40 kcal/mol as the dividing line for folding enthalpy, with the line itself on the satisfied side and lower values as not satisfied.

| seq_string | class |
| --- | --- |
| GCAACGCGAAAGCTGTGC (((..((....))..))) | satisfied |
| GTTCACGAAAGTGAAAC ((((((....))).))) | satisfied |
| GTCCATGGAAACATAGAC (((.(((....))).))) | satisfied |
| GCAGCGGGAAACTGCTGC (((((.(....).))))) | not satisfied |
| GCCATACGAAAGTACGGC (((.(((....))).))) | satisfied |
| GGACGTGGAAACGCGTCC (((((.(....).))))) | not satisfied |

###

run_description: folding enthalpy; higher = less favourable; fluorescence melt of hairpins on a sequencing array, two-state fit
experimental_conditions: sodium 0.088 M
reported_property: folding enthalpy (kcal/mol)

| seq_string | reported_property | output_unit | numeric_value |
| --- | --- | --- | --- |
| GCGTCATACGC ((((...)))) | folding enthalpy | kcal/mol | -20.1 |
| GTTGGACCGAAAGGTAAC (((..(((....)))))) | folding enthalpy | kcal/mol | -20 |
| GTATTCCGAAAGGATAC (((.(((....)))))) | folding enthalpy | kcal/mol | -19.7 |
| GATCCATTTCTGGATC ((((((....)))))) | folding enthalpy | kcal/mol | -34.3 |
| GAAGTAGGAAACTACTTC (((((((....))))))) | folding enthalpy | kcal/mol | -42.6 |
| GTTAAGCGAAAGCTAAC (((.(((....)))))) | folding enthalpy | kcal/mol | -18.5 |
